Assay: A CellTox Green Cytotoxicity Assay to monitor cytotoxicity in HEK293 cells - 32 hour (AID 1224881); also: nearly all actives have a fitted effect of over 40% in size
Settings: CellTox Green fluorescence; series mostly up to 76.8 µM
Results filed as inconclusive are left out. Active and inactive are the calls of the source. Calls follow the shape of the dose curve; as a rule, active = well fitted activation curve with a large enough effect in the repeat runs; inconclusive = weak or mixed curves; inactive = flat fitted curve, though single readings scatter.
Could you please pick one outcome from this set? 1.0 = active, 0.0 = inactive

Solved cases below.
molecule | group-label
Nc1ccc(N=Nc2ccc(N)cc2)cc1 | 0.0
CC(=O)OCC(C)C | 0.0
O=C(C(=O)c1ccco1)c1ccco1 | 0.0

QUERY: I'd appreciate the recorded outcome for `CC12CC3CC(C)(C1)CC(N)(C3)C2` from this test.
RESULT: 0.0

QUERY: I'd appreciate the recorded outcome for `Cc1c(C2(c3cc(Br)c(O)c(Br)c3C)OS(=O)(=O)c3ccccc32)cc(Br)c(O)c1Br` from this test.
RESULT: 0.0

QUERY: I'd appreciate the recorded outcome for `Cc1ccc(S(=O)(=O)NC(=O)NC2CCCCC2)cc1` from this test.
RESULT: 0.0

QUERY: I'd appreciate the recorded outcome for `COc1ccc(C2C(=O)c3ccccc3C2=O)cc1` from this test.
RESULT: 0.0

QUERY: I'd appreciate the recorded outcome for `O=C(Oc1ccccc1)c1ccc2ccccc2c1O` from this test.
RESULT: 0.0

QUERY: I'd appreciate the recorded outcome for `CC(C)(C)S` from this test.
RESULT: 0.0

QUERY: I'd appreciate the recorded outcome for CCCCCCCCCCCCCCCCCC(=O)OCC(CC)CCCC (configuration not stated) from this test.
RESULT: 0.0

QUERY: I'd appreciate the recorded outcome for `COc1cc(NS(=O)(=O)c2ccc(N)cc2)nc(C)n1` from this test.
RESULT: 0.0

QUERY: I'd appreciate the recorded outcome for `CCN(Cc1cccc(S(=O)(=O)O)c1)c1ccc(C(=C2C=CC(=[N+](CC)Cc3cccc(S(=O)(=O)O)c3)C=C2)c2ccc(O)cc2S(=O)(=O)[O-])cc1` from this test.
RESULT: 0.0

QUERY: I'd appreciate the recorded outcome for CCCCCCC(O)CCCCCCCCCCC(=O)OC (configuration not stated) from this test.
RESULT: 0.0

QUERY: I'd appreciate the recorded outcome for CC1CCC(C(C)CS)CC1S (configuration not stated) from this test.
RESULT: 1.0

QUERY: I'd appreciate the recorded outcome for `CN=C(N)NC(=O)Nc1c(C)cccc1C` from this test.
RESULT: 0.0

QUERY: I'd appreciate the recorded outcome for CC1CCc2nccnc21 (configuration not stated) from this test.
RESULT: 0.0

QUERY: I'd appreciate the recorded outcome for `CCN(CC)CCOc1ccccc1C(=O)CCc1ccccc1` from this test.
RESULT: 0.0
